Origin of measurements: the PETadex activity labels (doi:10.1016/s0014-5793(99)00813-3)

substrate: p-NP-C4; conditions: pH 7.1; 25 °C
outcomeMeasure: kcat (s⁻¹)
Respond with the bare value in s⁻¹.

protein	numericValue
unnamed (protein) MKPENKLPVLDLISAEMKTVVNTLQPDLPPWPATGTIAEQRQYYTLERRFWNAGAPEMATRAYMVPTKYGQVETRLFCPQPDSPATLFYLHGGGFILGNLDTNDRIMRLLASYSQCTVIGIDYTLSPEARFPQAIEEIVAACCYFHQQAEDYQINMSRIGFAGDSAGAMLALASALWLRDKQIDCGKVAGVLLWYGLYGLRDSVTRRLLGGVWDGLTQQDLQMYEEAYLSNDADRESPYYCLFNNDLTREVPPCFIAGAEFDPLLDDSRLLYQTLAAHQQPCEFKLYPGTLHAFLHYSRMMKTADEALRDGAQFFTAQL	12.1
unnamed (protein) MKPENKLPVLDLISAEMKTVVNTLQPDLPPWPATGTIAEQRQYYTLERRFWNAGAPEMATRAYMVPTKYGQVETRLFCPQPDSPATLFYLHGGGFILGNLDTHDRIMRLLASYSQCTVIGIDYTLSPEARFPQAIEEIVAACCYFHQQAEDYQINMSRIGFAGDSAGAMLALASALWLRDKQIDCGKVAGVLLWYGLYGLRDSVTRRLLGGVWDGLTQQDLQMYEEAYLSNDADRESPYYCLFNNDLTREVPPCFIAGAEFDPLLDDSRLLYQTLAAHQQPCEFKLYPGTLHAFLHYSRMMKTADEALRDGAQFFTAQL	30.9
unnamed (protein) MKPENKLPVLDLISAEMKTVVNTLQPDLPPWPATGTIAEQRQYYTLERRFWNAGAPEMATRAYMVPTKYGQVETRLFCPQPDSPATLFYLHGGGFILGNLDTHDRIMRLLASYSQCTVIGIDYTLSPQARFPQAIEEIVAACCYFHQQAEDYQINMSRIGFAGDSAGAMLALASALWLRDKQIDCGKVAGVLLWYGLYGLRDSVTRRLLGGVWDGLTQQDLQMYEEAYLSNDADRESPYYCLFNNDLTREVPPCFIAGAEFDPLLDDSRLLYQTLAAHQQPCEFKLYPGTLHAFLHYSRMMKTADEALRDGAQFFTAQL	7.4

**Q:** Need kcat of unnamed (protein) MKPENKLPVLDLISAEMKTVVNTLQPDLPPWPATGTIAEQRQYYTLERRFWNAGAPEMATRAYMVPTKYGQVETRLFCPQPDSPATLFYLHGGGFILGNLDTHDRIMRLLASYSQCTVIGIDYTLSPEARFPQAIEEIVAACCYFHQQAEDYQINMSRIGFAADSAGAMLALASALWLRDKQIDCGKVAGVLLWYGLYGLRDSVTRRLLGGVWDGLTQQDLQMYEEAYLSNDADRESPYYCLFNNDLTREVPPCFIAGAEFDPLLDDSRLLYQTLAAHQQPCEFKLYPGTLHAFLHYSRMMKTADEALRDGAQFFTAQL , thanks.
**A:** 2.9
